The reader will find reported pIC50 values listed item by item below.
- targetSystem: recombinant human TrkA (Homo sapiens (Human))
- Sequence (P04629 440-796): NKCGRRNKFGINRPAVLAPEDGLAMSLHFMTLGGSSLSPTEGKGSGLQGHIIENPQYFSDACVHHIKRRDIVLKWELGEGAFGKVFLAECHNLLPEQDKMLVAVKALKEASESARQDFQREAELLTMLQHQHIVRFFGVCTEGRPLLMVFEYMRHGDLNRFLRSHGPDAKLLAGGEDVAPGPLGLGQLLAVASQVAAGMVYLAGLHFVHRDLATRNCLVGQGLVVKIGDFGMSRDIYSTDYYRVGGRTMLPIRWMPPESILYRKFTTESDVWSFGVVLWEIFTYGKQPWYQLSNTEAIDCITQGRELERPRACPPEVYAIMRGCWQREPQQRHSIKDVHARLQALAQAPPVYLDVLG
- assayText: TrkA Kinase Binding Assay (LanthaScreen Eu)
- measurementConditions: averaged IC50; read-out: TrkA Enzyme IC50
pIC50: −log10 of the molar value.

// below: answered compounds
| compound | valueType | measuredValue |
| --- | --- | --- |
| Cc1nn(-c2ccccc2)c(NC(=O)N[C@@H]2c3cc(C(N)=O)ccc3C(C)(C)C[C@H]2O)c1C (relative stereo) | pIC50 | 5.52 to 6.00 |
| Cc1c(-c2cnn(C)c2)nn(-c2ccccc2)c1NC(=O)N[C@@H]1c2cc(F)ccc2C2(CC2)[C@H]1O (relative stereo) | pIC50 | > 7.00 |

# pIC50 of Cc1c(-c2cnn(C)c2)nn(-c2ccccc2)c1NC(=O)N[C@@H]1c2ccc(F)cc2C2(CC2)[C@H]1O (relative stereo) = > 7.00

// provenance: patent US10889589B2
